Compiled literature IC50, tested on Malate dehydrogenase, mitochondrial (Homo sapiens, UniProt P40926).
Sequence (P40926 whole entry): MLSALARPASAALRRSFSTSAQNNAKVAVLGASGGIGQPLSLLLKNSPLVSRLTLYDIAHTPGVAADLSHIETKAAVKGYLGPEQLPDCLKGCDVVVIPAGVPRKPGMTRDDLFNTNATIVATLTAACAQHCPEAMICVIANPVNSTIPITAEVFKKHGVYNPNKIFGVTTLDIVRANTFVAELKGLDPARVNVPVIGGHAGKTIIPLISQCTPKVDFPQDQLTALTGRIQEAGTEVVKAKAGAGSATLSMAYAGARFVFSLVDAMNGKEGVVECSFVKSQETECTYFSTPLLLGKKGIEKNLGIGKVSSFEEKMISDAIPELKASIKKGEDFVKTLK

>  <compound>
O=C1Cc2c([nH]c3ccc(Br)cc23)-c2ccccc2N1Cc1ccccc1

>  <tested-on>
Malate dehydrogenase, mitochondrial (Homo sapiens, UniProt P40926)

>  <censoring-qualifier>
=

>  <IC50 / µM>
2.4

$$$$
>  <compound>
O=C(O)Cc1ccc(Cl)c(SC2=C(O)CC(c3c(Cl)cccc3Cl)CC2=O)c1 (stereo not given)

>  <tested-on>
Malate dehydrogenase, mitochondrial (Homo sapiens, UniProt P40926)

>  <censoring-qualifier>
≥

>  <IC50 / µM>
10

$$$$
>  <compound>
O=C1CC(c2c(Cl)ccc(-c3cncnc3)c2Cl)CC(O)=C1Sc1ccccc1Cl (stereo not given)

>  <tested-on>
Malate dehydrogenase, mitochondrial (Homo sapiens, UniProt P40926)

>  <censoring-qualifier>
≥

>  <IC50 / µM>
10

$$$$
>  <compound>
O=C(O)c1cnc2cc(Cl)ccc2c1O

>  <tested-on>
Malate dehydrogenase, mitochondrial (Homo sapiens, UniProt P40926)

>  <censoring-qualifier>
=

>  <IC50 / µM>
3620

$$$$
>  <compound>
CC(C)Oc1ccc(Cl)c(C2CC(=O)C(Sc3ccccc3Cl)=C(O)C2)c1Cl (stereo not given)

>  <tested-on>
Malate dehydrogenase, mitochondrial (Homo sapiens, UniProt P40926)

>  <censoring-qualifier>
≥

>  <IC50 / µM>
10

$$$$

---

Compiled literature IC50, tested on Malate dehydrogenase, mitochondrial (Homo sapiens, UniProt P40926).

>  <molecule>
CC(=O)c1ccc2c(O)c(C(=O)O)cnc2c1

>  <censoring-qualifier>
=

>  <IC50, µM>
910

$$$$
>  <molecule>
O=C1CC(c2c(Cl)ccc(N3CCNCC3)c2Cl)CC(O)=C1Sc1ccccc1Cl (centres undefined)

>  <censoring-qualifier>
≥

>  <IC50, µM>
10

$$$$
>  <molecule>
O=C1CC(c2c(Cl)cccc2Cl)CC(O)=C1Sc1ccccc1Cl (centres undefined)

>  <censoring-qualifier>
≥

>  <IC50, µM>
10

$$$$
>  <molecule>
O=C1Cc2c([nH]c3ccc(C(F)(F)F)cc23)-c2ccccc2N1Cc1ccccc1

>  <censoring-qualifier>
=

>  <IC50, µM>
4.2

$$$$
>  <molecule>
COc1ccc(C#N)c(SC2=C(O)CC(c3c(Cl)ccc(OC(C)C)c3Cl)CC2=O)c1 (centres undefined)

>  <censoring-qualifier>
≥

>  <IC50, µM>
10

$$$$
>  <molecule>
CCOC(=O)Cc1ccc(Cl)c(SC2=C(O)CC(c3c(Cl)cccc3Cl)CC2=O)c1 (centres undefined)

>  <censoring-qualifier>
≥

>  <IC50, µM>
10

$$$$
>  <molecule>
O=C1CC(c2c(Cl)ccc(N3CCN(C4CC4)CC3)c2Cl)CC(O)=C1Sc1ccccc1Cl (centres undefined)

>  <censoring-qualifier>
≥

>  <IC50, µM>
10

$$$$
>  <molecule>
O=C(O)c1cnc2cc(O)ccc2c1O

>  <censoring-qualifier>
=

>  <IC50, µM>
490

$$$$
>  <molecule>
CN(C)C(=O)Cc1ccc(Cl)c(SC2=C(O)CC(c3c(Cl)cccc3Cl)CC2=O)c1 (centres undefined)

>  <censoring-qualifier>
≥

>  <IC50, µM>
10

$$$$
>  <molecule>
C#CCOC(=O)c1ccc(O)c(NC(=O)COc2ccc(C34CC5CC(CC(C5)C3)C4)cc2C2(C(F)(F)F)N=N2)c1

>  <censoring-qualifier>
=

>  <IC50, µM>
5.5

$$$$
>  <molecule>
CCCCCCOC(=O)c1ccc2[nH]c3c(c2c1)CC(=O)Nc1ccccc1-3

>  <censoring-qualifier>
=

>  <IC50, µM>
4.3

$$$$
>  <molecule>
Cc1ccc(CN2C(=O)Cc3c([nH]c4ccccc34)-c3ccccc32)cc1

>  <censoring-qualifier>
=

>  <IC50, µM>
10.5

$$$$
>  <molecule>
COc1ccc(Cl)c(SC2=C(O)CC(c3c(Cl)ccc(-c4ccncc4)c3Cl)CC2=O)c1 (centres undefined)

>  <censoring-qualifier>
≥

>  <IC50, µM>
10

$$$$
>  <molecule>
NC(=O)c1ccc2c(O)c(C(=O)O)cnc2c1

>  <censoring-qualifier>
=

>  <IC50, µM>
740

$$$$
>  <molecule>
CS(=O)(=O)c1ccc2c(O)c(C(=O)O)cnc2c1

>  <censoring-qualifier>
=

>  <IC50, µM>
660

$$$$
>  <molecule>
O=C1CC(c2c(Cl)ccc(N3CCN(C4COC4)CC3)c2Cl)CC(O)=C1Sc1ccccc1Cl (centres undefined)

>  <censoring-qualifier>
≥

>  <IC50, µM>
10

$$$$
>  <molecule>
CCCCOC(=O)c1ccc2[nH]c3c(c2c1)CC(=O)Nc1ccccc1-3

>  <censoring-qualifier>
=

>  <IC50, µM>
9.9

$$$$
>  <molecule>
COc1ccc(Cl)c(SC2=C(O)CC(c3c(Cl)ccc(NC4CCOCC4)c3Cl)CC2=O)c1 (centres undefined)

>  <censoring-qualifier>
≥

>  <IC50, µM>
10

$$$$
>  <molecule>
C#CCOc1ccc(C23CC4CC(CC(C(=O)OCc5ccc(C6(C(F)(F)F)N=N6)cc5)(C4)C2)C3)cc1

>  <censoring-qualifier>
>

>  <IC50, µM>
20

$$$$
